Reference source: ChEMBL document CHEMBL4350973

assay.notes: Octanol/water partition co-efficient, log P of compound by UV-spectrophotometry-based shake-flask method
Assay type: physicochemical
measurement.type: logP

Please review the entries below; each comes with its answer.
molecule	logP
FC(F)OCCc1ccccc1	3.16
Cc1ccc(C#N)cc1	2

I have 2 molecules here; please give me logP for each one.
1. CSCCc1ccccc1
2. O=C(OC(F)F)c1ccccc1

Data returned:
1. 2.95
2. 2.66

Batch of 7 molecules: report logP for each.
1. O=[N+]([O-])c1ccc(C(F)F)cc1
2. COc1ccc(C(F)F)cc1
3. CN1C(=O)c2ccccc2C1=O
4. FC(F)c1ccccc1
5. FC(F)SCCc1ccccc1
6. N#Cc1ccc(C(F)F)cc1
7. O=[N+]([O-])c1ccc(S(=O)(=O)C(F)F)cc1

Data returned:
2.12
2.61
1.33
2.4
3.16
1.75
1.7

Can you give me logP for all of these, one by one?
1. FC(F)c1ccc(Br)cc1
2. C[S+]([O-])c1ccc([N+](=O)[O-])cc1 (stereo not drawn)

Data returned:
1. 2.78
2. 0.49
